The origin of these recorded values is ChEMBL document CHEMBL1201862.

System: LOX IMVI
PROTOCOL: NCI tumour cell line growth inhibition, 48 h
The source made the active and inactive calls. No stated cut-off is given here; in the data, active = GI50 up to about 1.1 µM and inactive = higher.
Choose the fitting class; nothing outside 1 = active, 0 = inactive is accepted.

Solved entries:
CCCCNC(=S)Nn1c(-c2ccccc2)nc2ccccc2c1=O :: 0
COc1ccc2[nH]c3c(c2c1)CCN(C)CC3 :: 0
CCC1CN2CCc3cc(OC)c(OC)cc3C2CC1CC1c2cc(OC)c(OC)cc2CCN1C(=O)C(N)Cc1ccccc1.[O-][Cl+3]([O-])([O-])O (centres undefined) :: 1

Ask: Assay outcome for CN1CCC(c2c(O)cc(O)c3c(=O)cc(-c4ccccc4Cl)oc23)C(O)C1 (centres undefined) : what was it?
Result: 1

Ask: Assay outcome for `S=C(c1c[nH]c2ccccc12)N1CCN(Cc2ccccc2)CC1` : what was it?
Result: 0

Ask: Assay outcome for COCc1c(CO)cnc(C)c1OC1OC(CO)C(O)C(O)C1O (centres undefined) : what was it?
Result: 0

Ask: Assay outcome for `O=C(Nc1nnc(-c2c(Cl)c(Cl)c(Cl)c(Cl)c2-c2nc3cc(C(=O)c4ccccc4)ccc3[nH]2)o1)c1ccc(Cl)cc1` : what was it?
Result: 0

Ask: Assay outcome for `C1=CC=C2NCCCCCCC/N=C3/C=CC=CC=C3NCCCCCCC/N=C\2C=C1` : what was it?
Result: 0

Ask: Assay outcome for `O=C(Oc1ccc2c(-c3ccccc3)c(C(=O)Nc3ccc(Cl)cc3)c(=O)oc2c1)c1ccccc1` : what was it?
Result: 0

----------
GI50 by entry:
Test system: NCI-H23
PROTOCOL: NCI tumour cell line growth inhibition, 48 h
The source made the active and inactive calls. No stated cut-off is given here; in the data, active = GI50 up to about 1.1 µM and inactive = higher. Starred links: 1 amine or outer side, 2 acyl side, 3 side chain; linkers in the order of their positions; H or OH if unused. Positions of bridges follow the written chain, without caps; N, C: chain ends. Non-standard residues stand in square brackets, D forms with d. Residues, ends and D or L forms follow the SMILES beside them. ξ: configuration not given here. X37 = CC[C@H](C)[C@@H](N[*:1])[C@@H](O)CC(=O)O[C@H](C(=O)[C@H](C)C(=O)[*:2])C(C)C; NMeY = CN[C@@H](Cc1ccc(O)cc1)C(=O)O; dNMeL = CN[C@H](CC(C)C)C(=O)O; ξΔPro = O=C(O)C1C=CCN1

The following molecules have reported results that may help.
CCOC(=O)C1(Cc2ccccc2)C=CN(C(=O)c2ccccc2)C=C1 :: 30.1 µM (inactive)
CC(=O)O/N=C(/C)c1ccccc1O :: > 100 µM (inactive)
COc1cccc2c1OC1(C=C2)Oc2ccccc2C(=O)N1C (stereo not given) :: 31.2 µM (inactive)
CC[C@H](C)[C@H]1NC(=O)[C@@H](NC(=O)[C@@H](CC(C)C)N(C)C(=O)C2C=CCN2)[C@@H](C)OC(=O)[C@H](Cc2ccc(OC)cc2)N(C)C(=O)[C@@H]2CCCN2C(=O)[C@H](CC(C)C)NC(=O)[C@@H](C)C(=O)[C@H](C(C)C)OC(=O)C[C@@H]1O (stereo not given in full) (H-[ξΔPro][dNMeL]T[X37]LP[NMeY](Me); ester 3-C) :: < 0.005 µM (active)

Ask: Please look up its GI50: CCC1CN2CCc3cc(OC)c(OC)cc3C2CC1CC1c2cc(OC)c(OC)cc2CCN1C(=O)C(N)Cc1ccccc1.[O-][Cl+3]([O-])([O-])O (stereo not given)
Result: 2.42 µM (inactive)
